target: Cyclin-dependent kinase 2/cyclin A (Homo sapiens) (UniProt P24941+P20248+P78396); test: Inhibition of CDK2/cyclin A (unknown origin) using […] at 1 uM incubated for 40 mins in presence of ATP by Kinase-Glo assay relative to control; assay type: protein-complex assay
Would you mind labelling by inhibition? At or over 80% is 1, under is -1.

As a guide, the following entries are already answered.
>>> class_name("CNS(=O)(=O)c1ccc(Nc2ncc(C)c(Nc3nccs3)n2)cc1")
1
>>> class_name("CCOC(=O)c1cnc(Nc2nc(Nc3ccc(S(N)(=O)=O)cc3)ncc2OC)s1")
-1

// query Check if inhibition >= 80% (inclusive). Item: COc1ccc(Nc2nccc(Nc3ncco3)n2)cc1
// result -1

// query Record COC(=O)c1sc(Nc2ccnc(Nc3ccc(S(N)(=O)=O)cc3)n2)nc1C ; criterion: inhibition no lower than 80%. Met?
// result -1

// query Quick check, inhibition >= 80%? Cc1cnc(Nc2ccc(S(=O)(=O)NC3CC3)cc2)nc1Nc1nccs1
// result -1

// query Identify whether the reported inhibition of the following molecule is 80% or greater: COC(=O)c1sc(Nc2nc(Nc3ccc(S(N)(=O)=O)cc3)ncc2OC)nc1C
// result -1
